assay: acute toxicity in mice, intraperitoneal (Miller and Tainter); details: mouse, in vivo, ip, read-out: Acute toxicity (mice) LD 50
Note to self: LD50 under 200 mg/kg means class 1, ties and anything higher get class 0.

[
  {
    "Compound": "COc1nc(C)ncc1C(=O)NC1CCN(Cc2ccc(F)cc2)C1 (stereo not drawn)",
    "Class": "class 1"
  },
  {
    "Compound": "C=CCN1CCCC1CNC(=O)c1cnc(C)nc1OC (stereo not drawn)",
    "Class": "class 0"
  },
  {
    "Compound": "CCN(CCNC(=O)c1cnc(C)nc1OC)Cc1ccc(F)cc1",
    "Class": "class 1"
  },
  {
    "Compound": "COc1nc(C)ncc1C(=O)NCCN1CCN(c2ccccc2)CC1",
    "Class": "class 1"
  },
  {
    "Compound": "CCOc1nc(N(C)C)ncc1C(=O)NC[C@@H]1CCCN1CC",
    "Class": "class 1"
  },
  {
    "Compound": "CCOc1nc(C)ncc1C(=O)NCC1CCCN1CC (stereo not drawn)",
    "Class": "class 1"
  },
  {
    "Compound": "CCN1CCCC1CNC(=O)c1cnc(C)nc1OC(C)C (stereo not drawn)",
    "Class": "class 1"
  },
  {
    "Compound": "COc1nc(N)ncc1C(=O)NCCN1CCc2ccccc2C1",
    "Class": "class 0"
  },
  {
    "Compound": "CCOc1nc(C)ncc1C(=O)NCC1CCCN1C (stereo not drawn)",
    "Class": "class 1"
  },
  {
    "Compound": "CCOc1nc(N)ncc1C(=O)NCCN(CC)CC",
    "Class": "class 0"
  },
  {
    "Compound": "CCOc1nc(CC)ncc1C(=O)NCC1CCCN1C (stereo not drawn)",
    "Class": "class 1"
  },
  {
    "Compound": "COc1nc(N)ncc1C(=O)NCC1CCCN1Cc1ccccc1 (stereo not drawn)",
    "Class": "class 1"
  },
  {
    "Compound": "COc1nc(N)ncc1C(=O)NC1CCN(Cc2ccccc2)C1 (stereo not drawn)",
    "Class": "class 1"
  },
  {
    "Compound": "COc1nc(N)ncc1C(=O)NCC1CCCN1C (stereo not drawn)",
    "Class": "class 0"
  },
  {
    "Compound": "CCOc1nc(C)ncc1C(=O)NCCN(CC)Cc1ccc(F)cc1",
    "Class": "class 1"
  }
]
